test system: biotinyl-Leu-oxazolone; experiment: self-aminoacylation, catalytic enhancement (BLO) (fold over background); higher = more active; k-Seq, kA / k0A0; sequences stand for … in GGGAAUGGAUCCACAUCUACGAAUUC…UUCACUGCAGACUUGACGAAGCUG
Variants at the floor of the assay were thinned out.
Reported self-aminoacylation values follow for various sequences
Write no unit; give the number alone.

Example sequences with recorded self-aminoacylation:
>>> recordedresult("GUUCACCUAGGUCAUCAGGUG [Fam2.2 aminoacylation ribozyme variant]")
1.32
>>> recordedresult("AUGUUUGCUAAUAGUCGAAAG [Fam3.1 aminoacylation ribozyme variant]")
1.07
>>> recordedresult("CCCCACUUCAAGCAAUCGGCC [Fam1B.1 aminoacylation ribozyme variant]")
2.75
>>> recordedresult("CCACACAUCAAGCAAUGGGUC [Fam1B.1 aminoacylation ribozyme variant]")
0.806
>>> recordedresult("AUUCAGCUAGGUGAUCGGGUG [Fam2.2 aminoacylation ribozyme variant]")
5.32

Look up self-aminoacylation: CCACACUUCAAGUCAUCGGUC [Fam1B.1 aminoacylation ribozyme variant]
1.31

Next sequence up: AUUCCCCUAGGGCAUCGGGUG [Fam2.2 aminoacylation ribozyme variant]
12.4

Next sequence up: CUACGUCAAACAAUCGGUCUC [Fam1A.1 aminoacylation ribozyme variant]
0.765

Next sequence up: CCACACUUCAAACAAACGGUC [Fam1B.1 aminoacylation ribozyme variant]
0.598

Next sequence up: AUUACCCUGGUCAUCGCCUGA [Fam2.1 aminoacylation ribozyme variant]
3.64

====

test system: biotinyl-Leu-oxazolone; test: self-aminoacylation, catalytic enhancement (BLO) (fold over background); higher = more active; k-Seq, kA / k0A0; sequences stand for … in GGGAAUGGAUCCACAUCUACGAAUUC…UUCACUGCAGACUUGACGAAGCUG
Variants at the floor of the assay were thinned out.
parameter: self-aminoacylation
Write no unit; give the number alone.

Example sequences with recorded self-aminoacylation:
>>> recordedresult("AUUGCCCUGGUCAUCCAGUGA [Fam2.1 aminoacylation ribozyme variant]")
7.38
>>> recordedresult("AAGUUCGCUAAAAGUCGCAAG [Fam3.1 aminoacylation ribozyme variant]")
2.68
>>> recordedresult("AAGUUUUCUAAUAGUCGCAAG [Fam3.1 aminoacylation ribozyme variant]")
1.32
>>> recordedresult("AUUACCCUGCUCAUCGAGCGA [Fam2.1 aminoacylation ribozyme variant]")
1.4
>>> recordedresult("UUACUUCAAACAAUCGGUUUG [Fam1A.1 aminoacylation ribozyme variant]")
1.86

Look up self-aminoacylation: ACACACUGCAAGCAAUCGGUC [Fam1B.1 aminoacylation ribozyme variant]
1.48

Next sequence up: CCACACUUCAAGCCAUCGGUG [Fam1B.1 aminoacylation ribozyme variant]
6.79

Next sequence up: AUUAACCUAGGUCAUAGGGUG [Fam2.2 aminoacylation ribozyme variant]
1.74

Next sequence up: AUUACCGUAGUCAUCGAGUGA [Fam2.1 aminoacylation ribozyme variant]
5.83

Next sequence up: AAAUGUGCUAAUAGUCGCAAG [Fam3.1 aminoacylation ribozyme variant]
1.53

Next sequence up: AUUACCCUGGUCAGCGAGUGA [Fam2.1 aminoacylation ribozyme variant]
4.71

Next sequence up: CUACUUCAAACAAUCGUACUG [Fam1A.1 aminoacylation ribozyme variant]
0.389

====

Reported self-aminoacylation values follow for various sequences
tested on: biotinyl-Leu-oxazolone; experiment: self-aminoacylation, catalytic enhancement (BLO) (fold over background); higher = more active; k-Seq, kA / k0A0; sequences stand for … in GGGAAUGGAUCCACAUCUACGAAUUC…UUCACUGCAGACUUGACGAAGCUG
Variants at the floor of the assay were thinned out.
Write no unit; give the number alone.

>>> recordedresult("AUUCUCCUAGGUCACCGGGUG [Fam2.2 aminoacylation ribozyme variant]")
10.2

Look up self-aminoacylation: CUAGUUCAAACAAUCGGCCUG [Fam1A.1 aminoacylation ribozyme variant]
2.2

Next sequence up: AUUCAUCUACGUCAUCGGGUG [Fam2.2 aminoacylation ribozyme variant]
8.74

Next sequence up: CCAUACUUCAAGGAAUCGGUC [Fam1B.1 aminoacylation ribozyme variant]
1.07

====

tested on: biotinyl-Met-oxazolone; test: self-aminoacylation, catalytic enhancement (BMO) (fold over background); higher = more active; k-Seq, kA / k0A0; sequences stand for … in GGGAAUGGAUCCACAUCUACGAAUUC…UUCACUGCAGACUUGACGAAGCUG
Fewer inactive variants are shown than the library holds.
parameter: self-aminoacylation
Write no unit; give the number alone.

Example sequences with recorded self-aminoacylation:
>>> recordedresult("CUACUUCUAACAAUCGGUCUU [Fam1A.1 aminoacylation ribozyme variant]")
0.701
>>> recordedresult("CAGUUUGCCAAUAGUCGCAAG [Fam3.1 aminoacylation ribozyme variant]")
1.83
>>> recordedresult("CUACUUCAAACAACCGGUCUG [Fam1A.1 aminoacylation ribozyme variant]")
0.729

Next sequence, self-aminoacylation to be filled in.
Look up self-aminoacylation: AAGUAAGCUAAUAGUCGCAAG [Fam3.1 aminoacylation ribozyme variant]
1.18

====

Reported self-aminoacylation values follow for various sequences
system: biotinyl-Ile-oxazolone; experiment: self-aminoacylation, catalytic enhancement (BIO) (fold over background); higher = more active; k-Seq, kA / k0A0; sequences stand for … in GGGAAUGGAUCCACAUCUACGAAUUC…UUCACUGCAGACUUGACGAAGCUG
Variants at the floor of the assay were thinned out.

Example sequences with recorded self-aminoacylation:
>>> recordedresult("CUACCUCAAACAAUUGGUCUG [Fam1A.1 aminoacylation ribozyme variant]")
1.08
>>> recordedresult("CUACCUCAAACAAUCAGUCUG [Fam1A.1 aminoacylation ribozyme variant]")
0.649
>>> recordedresult("CUACUGCAAACAAUCGUUCUG [Fam1A.1 aminoacylation ribozyme variant]")
0.702

Next sequence, self-aminoacylation to be filled in.
Look up self-aminoacylation: AUUCAGCUAGGUGAUCGGGUG [Fam2.2 aminoacylation ribozyme variant]
3.84

====

test system: biotinyl-Phe-oxazolone; assay: self-aminoacylation, catalytic enhancement (BFO) (fold over background); higher = more active; k-Seq, kA / k0A0; sequences stand for … in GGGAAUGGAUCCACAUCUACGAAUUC…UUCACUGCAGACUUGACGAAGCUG
Fewer inactive variants are shown than the library holds.
Label scheme for self-aminoacylation: lower than 3 is NO, 3 and above is YES.

Below, 3 sequences whose answers are already recorded.
>>> labelvalue("AUUAUCCUUGUCAUCGAGUGA [Fam2.1 aminoacylation ribozyme variant]")
"YES"
>>> labelvalue("CGACUUCAAACAAUCGCUCUG [Fam1A.1 aminoacylation ribozyme variant]")
"YES"
>>> labelvalue("AUUCGCCUAGGUCAUCGGGAG [Fam2.2 aminoacylation ribozyme variant]")
"NO"

Threshold query (self-aminoacylation >= 3) on UUAAUUCAAACAAUCGGUCUG [Fam1A.1 aminoacylation ribozyme variant]
YES

Next sequence up: CUAAUUAAAACAAUCGGUCUG [Fam1A.1 aminoacylation ribozyme variant]
NO

====

system: biotinyl-Met-oxazolone; assay: self-aminoacylation, catalytic enhancement (BMO) (fold over background); higher = more active; k-Seq, kA / k0A0; sequences stand for … in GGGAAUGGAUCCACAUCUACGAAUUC…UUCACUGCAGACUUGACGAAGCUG
Variants at the floor of the assay were thinned out.
parameter: self-aminoacylation
Write no unit; give the number alone.

Example sequences with recorded self-aminoacylation:
>>> recordedresult("AUUACCCUGGCCAACGAGUGA [Fam2.1 aminoacylation ribozyme variant]")
2.75
>>> recordedresult("CCACACUUCAAGCUAUUGGUC [Fam1B.1 aminoacylation ribozyme variant]")
0.643
>>> recordedresult("CCACACUUCAAGUCAUCGGUC [Fam1B.1 aminoacylation ribozyme variant]")
1.04
>>> recordedresult("CUACUUCAGACAAUCGAUCUG [Fam1A.1 aminoacylation ribozyme variant]")
0.542
>>> recordedresult("AAGUUUGCUAAUAGUCACGAG [Fam3.1 aminoacylation ribozyme variant]")
1.33
>>> recordedresult("AUUACCCUUGUCAUCGCGUGA [Fam2.1 aminoacylation ribozyme variant]")
10.7

Look up self-aminoacylation: CUACUUCAAACCAUAGGUCUG [Fam1A.1 aminoacylation ribozyme variant]
0.47

Next sequence up: AUUUACCUAGAUCAUCGGGUG [Fam2.2 aminoacylation ribozyme variant]
2.35

Next sequence up: AUGCACCUAGGUCACCGGGUG [Fam2.2 aminoacylation ribozyme variant]
3.97

====

system: biotinyl-Phe-oxazolone; test: self-aminoacylation, catalytic enhancement (BFO) (fold over background); higher = more active; k-Seq, kA / k0A0; sequences stand for … in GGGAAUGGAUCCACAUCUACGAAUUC…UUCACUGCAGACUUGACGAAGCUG
Variants at the floor of the assay were thinned out.
Label scheme for self-aminoacylation: lower than 2 is F, 2 and above is T.

Below, 2 sequences whose answers are already recorded.
>>> labelvalue("CUAUUUCAACCAAUCGGUCUG [Fam1A.1 aminoacylation ribozyme variant]")
"T"
>>> labelvalue("ACUCACCUAAGUCAUCGGGUG [Fam2.2 aminoacylation ribozyme variant]")
"T"

Threshold query (self-aminoacylation >= 2) on GAGUUUGUUAAUAGUCGCAAG [Fam3.1 aminoacylation ribozyme variant]
T

Next sequence up: AAACUUGCUAAUAGUCGCAAG [Fam3.1 aminoacylation ribozyme variant]
T

Next sequence up: AGUAACCUAGGUCAUCGGGUG [Fam2.2 aminoacylation ribozyme variant]
T

Next sequence up: AUUGCUCUGGUCAUCGAGUGA [Fam2.1 aminoacylation ribozyme variant]
T

Next sequence up: AACUUUGCUAAUAUUCGCAAG [Fam3.1 aminoacylation ribozyme variant]
F

Next sequence up: CAACACUUCAAGCGAUCGGUC [Fam1B.1 aminoacylation ribozyme variant]
F

Next sequence up: AUUCUCCUAGGUCAUCGUGUG [Fam2.2 aminoacylation ribozyme variant]
T

Next sequence up: AUUCAUCUAGGUCACCGGGUG [Fam2.2 aminoacylation ribozyme variant]
T

Next sequence up: CCACCCUUCAAGCAAUCGCUC [Fam1B.1 aminoacylation ribozyme variant]
F

Next sequence up: CUUUCCCUGGUCAUCGAGUGA [Fam2.1 aminoacylation ribozyme variant]
T

Next sequence up: AUUCAUCUAGGUCAUCGGGUC [Fam2.2 aminoacylation ribozyme variant]
T

Next sequence up: CCUAACUUCAAGCAAUCGGUC [Fam1B.1 aminoacylation ribozyme variant]
T

Next sequence up: AUUCACCGAAGUCAUCGGGUG [Fam2.2 aminoacylation ribozyme variant]
T

Next sequence up: AUUACCCUGGUCAACGAGUCA [Fam2.1 aminoacylation ribozyme variant]
F

Next sequence up: AUUACCCUGGUCUUCUAGUGA [Fam2.1 aminoacylation ribozyme variant]
T

Next sequence up: CCACACUUUAAGCAAUCAGUC [Fam1B.1 aminoacylation ribozyme variant]
F
